Assay: Rat plasma pharmacokinetics after 10-day vehicle/SLE and digoxin or GE
Type: in vivo, Sprague-Dawley rats
Settings: female, Sprague-Dawley, rat, plasma, po, rats, SLE 500 mg/kg ig once a day for 10 days, day 11 digoxin 0.5 mg/kg or GE 120 mg/kg ig; read-out: t1/2 (converted)
Method: This study was carried out in strict accordance with the recommendations in the Guide for the Care and Use of Laboratory Animals of the National Institutes of Health. […] Pharmacokinetic parameters were calculated using the WinNonlin 6.3 program (Pharsight Inc., Mountain View, CA). The elimination half-life (t 1/2) value was calculated as 0.693/β, where β is the elimination rate constant calculated from the terminal linear portion of the log plasma concentration-time curve. […]
Test Readout: half-life (h)

# Molecule, Readout Number
data = [
    ("CC(C)=CCC[C@](C)(O[C@@H]1O[C@H](CO[C@@H]2O[C@H](CO)[C@@H](O)[C@H](O)[C@H]2O)[C@@H](O)[C@H](O)[C@H]1O)[C@H]1CC[C@]2(C)[C@@H]1[C@H](O)C[C@@H]1[C@@]3(C)CC[C@H](O[C@@H]4O[C@H](CO)[C@@H](O)[C@H](O)[C@H]4O[C@@H]4O[C@H](CO)[C@@H](O)[C@H](O)[C@H]4O)C(C)(C)[C@@H]3CC[C@]12C [Rb1, ginsenoside Rb1]", 19.3),
    ("CC(C)=CCC[C@](C)(O[C@@H]1O[C@H](CO)[C@@H](O)[C@H](O)[C@H]1O)[C@H]1CC[C@]2(C)[C@@H]1[C@H](O)C[C@@H]1[C@@]3(C)CC[C@H](O[C@@H]4O[C@H](CO)[C@@H](O)[C@H](O)[C@H]4O[C@@H]4O[C@H](CO)[C@@H](O)[C@H](O)[C@H]4O)C(C)(C)[C@@H]3CC[C@]12C [Rd, ginsenoside Rd]", 18),
    ("CC(C)=CCC[C@](C)(O[C@@H]1O[C@H](CO[C@@H]2OC[C@H](O)[C@H](O)[C@H]2O)[C@@H](O)[C@H](O)[C@H]1O)[C@H]1CC[C@]2(C)[C@@H]1[C@H](O)C[C@@H]1[C@@]3(C)CC[C@H](O[C@@H]4O[C@H](CO)[C@@H](O)[C@H](O)[C@H]4O[C@@H]4O[C@H](CO)[C@@H](O)[C@H](O)[C@H]4O)C(C)(C)[C@@H]3CC[C@]12C [Rb2, ginsenoside Rb2]", 24.3),
]
